biological target: EGFR (Homo sapiens, UniProt P00533); assay: EGFR signaling (pEGFR Tyr1068/total EGFR MSD) in A431 cells; type: cell-based; parameters: endogenous in cells; host or cells: A431, N87; conditions: ratio A431 pEGFR EC50 to HEK YVMA pHER2 EC50
Sequence (P00533 25-1210): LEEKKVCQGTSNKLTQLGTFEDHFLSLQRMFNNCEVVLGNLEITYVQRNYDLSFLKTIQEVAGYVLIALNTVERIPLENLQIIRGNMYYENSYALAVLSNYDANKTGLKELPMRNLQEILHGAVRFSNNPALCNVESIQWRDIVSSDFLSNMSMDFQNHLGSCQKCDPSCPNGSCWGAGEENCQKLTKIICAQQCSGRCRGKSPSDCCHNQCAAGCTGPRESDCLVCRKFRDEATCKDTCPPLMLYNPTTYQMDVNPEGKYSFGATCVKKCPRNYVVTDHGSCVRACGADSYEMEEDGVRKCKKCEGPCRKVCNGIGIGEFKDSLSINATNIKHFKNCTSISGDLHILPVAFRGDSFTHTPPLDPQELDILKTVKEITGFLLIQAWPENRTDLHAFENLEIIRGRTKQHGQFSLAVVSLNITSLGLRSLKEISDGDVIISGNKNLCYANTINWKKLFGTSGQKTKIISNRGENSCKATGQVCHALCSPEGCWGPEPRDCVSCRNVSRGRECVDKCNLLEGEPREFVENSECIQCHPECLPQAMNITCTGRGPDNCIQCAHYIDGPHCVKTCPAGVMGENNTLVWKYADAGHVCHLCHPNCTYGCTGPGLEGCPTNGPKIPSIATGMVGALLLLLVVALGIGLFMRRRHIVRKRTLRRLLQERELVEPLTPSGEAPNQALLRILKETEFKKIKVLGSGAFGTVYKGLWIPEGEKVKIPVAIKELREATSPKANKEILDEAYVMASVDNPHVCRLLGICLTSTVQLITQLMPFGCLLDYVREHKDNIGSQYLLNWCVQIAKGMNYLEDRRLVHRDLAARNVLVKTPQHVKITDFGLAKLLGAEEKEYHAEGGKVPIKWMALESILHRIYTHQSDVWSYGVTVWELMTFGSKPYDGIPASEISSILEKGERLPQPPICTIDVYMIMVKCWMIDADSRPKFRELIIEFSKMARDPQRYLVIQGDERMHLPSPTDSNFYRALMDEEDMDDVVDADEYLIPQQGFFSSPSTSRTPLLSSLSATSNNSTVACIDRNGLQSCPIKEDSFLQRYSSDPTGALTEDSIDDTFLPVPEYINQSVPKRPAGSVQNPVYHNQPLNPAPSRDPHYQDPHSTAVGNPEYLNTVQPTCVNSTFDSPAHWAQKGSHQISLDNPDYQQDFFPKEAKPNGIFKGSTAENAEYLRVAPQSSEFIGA
experimental readout: Selectivity A431 EC50/HEKYVMA EC50

>  <compound>
Cc1ccc(Oc2ccc(Nc3ncnc4sc5c(c34)CCN(C(=O)/C=C/CN3CC(O)CO3)C5)cc2C)cn1 (stereo not shown) [Compound 43]

>  <experimental readout>
Selectivity A431 EC50/HEKYVMA EC50

>  <readout value>
C (C: ≥ 10 and < 20)

$$$$
>  <compound>
Cc1ccc(Oc2ccc(Nc3ncnc4sc5c(c34)CN(C(=O)/C=C/CN(C)C)CC5)cc2C)cn1 [Compound 108]

>  <experimental readout>
Selectivity A431 EC50/HEKYVMA EC50

>  <readout value>
C (C: ≥ 10 and < 20)

$$$$

###

target: UniProtKB P00533; test: EGFR signaling (pEGFR Tyr1068/total EGFR MSD) in A431 cells; type: cell-based; parameters: endogenous in cells; host or cells: A431, N87; settings: ratio A431 pEGFR EC50 to HEK YVMA pHER2 EC50
experimental readout: Selectivity A431 EC50/HEKYVMA EC50

>  <compound>
Cc1ccc(Oc2ccc(Nc3ncnc4sc5c(c34)CC(C)N(C(=O)C=CCN(C)C)C5C)cc2C)cn1 (single isomer, unassigned) [Compound 161]

>  <Selectivity A431 EC50/HEKYVMA EC50>
E (E: >1 and < 5)

$$$$
>  <compound>
Cc1ccc(Oc2ccc(Nc3ncnc4sc5c(c34)C(C)CN(C(=O)/C=C/CN(C)C)C5)cc2Cl)cn1 (stereo not drawn)

>  <Selectivity A431 EC50/HEKYVMA EC50>
E (E: >1 and < 5)

$$$$
>  <compound>
Cc1cc(Nc2ncnc3sc4c(c23)CCN(C(=O)/C=C/CN2CC3C(CO)C3C2)C4)ccc1Oc1ccc2ncnn2c1 (stereo not drawn)

>  <Selectivity A431 EC50/HEKYVMA EC50>
C (C: ≥ 10 and < 20)

$$$$
>  <compound>
Cc1ccc(Oc2ccc(Nc3ncnc4sc5c(c34)CCN(C(=O)/C=C/CN3CC(C)OC(C)C3C)C5)cc2C)cn1 (stereo not drawn)

>  <Selectivity A431 EC50/HEKYVMA EC50>
B (B: ≥ 20 and < 100)

$$$$
>  <compound>
O=C(/C=C/CN1CC2CC1CO2)N1CCc2c(sc3ncnc(Nc4ccc(Oc5ccc6ncnn6c5)c(Cl)c4)c23)C1 (stereo not drawn)

>  <Selectivity A431 EC50/HEKYVMA EC50>
D (D: ≥ 5 and < 10)

$$$$
>  <compound>
C=CC(=O)N1Cc2sc3ncnc(Nc4ccc(Oc5ccc(C)nc5)c(C)c4)c3c2C(C)C1 (single isomer, unassigned) [Compound 146]

>  <Selectivity A431 EC50/HEKYVMA EC50>
D (D: ≥ 5 and < 10)

$$$$
>  <compound>
COc1ccc(Oc2ccc(Nc3ncnc4sc5c(c34)CCN(C(=O)/C=C/CN3CCOCC3)C5)cc2C)cn1

>  <Selectivity A431 EC50/HEKYVMA EC50>
D (D: ≥ 5 and < 10)

$$$$
>  <compound>
Cc1ccc(Oc2ccc(Nc3ncnc4sc5c(c34)CCN(C(=O)/C=C/CN3CC=CCC3)C5)cc2C)cn1

>  <Selectivity A431 EC50/HEKYVMA EC50>
B (B: ≥ 20 and < 100)

$$$$

Lookup: Can you share its Selectivity A431 EC50/HEKYVMA EC50? I mean this compound: Cc1cc(Nc2ncnc3sc4c(c23)CCN(C(=O)/C=C/CN2CC(C)OC(C)C2C)C4)ccc1Oc1ccc2ncnn2c1 (stereo not drawn)
Found: B (B: ≥ 20 and < 100)

###

In this section, each of the compounds is paired with its reported EC50.
target: EGFR (Homo sapiens); test: EGFR signaling (pEGFR Tyr1068/total EGFR MSD) in A431 cells; type: cell-based; parameters: endogenous in cells; host or cells: A431, N87; conditions: A431 cells; read-out: A431 pEGFR EC50

See these solved cases before continuing.
>  <compound>
Cc1ccc(Oc2ccc(Nc3ncnc4sc5c(c34)CCN(C(=O)/C=C/CN3CCC(CO)(CO)CC3)C5)cc2C)cn1 [Compound 135]

>  <EC50>
1000 to 10000 nM

$$$$
>  <compound>
COc1ccc(Oc2ccc(Nc3ncnc4sc5c(c34)CN(C(=O)/C=C/CN(C)C)C5)cc2C)cn1 [Compound 128]

>  <EC50>
1000 to 10000 nM

$$$$
>  <compound>
C=CC(=O)N1CCc2c(sc3ncnc(Nc4ccc(Oc5cccnc5)c(Cl)c4)c23)C1 [Compound 6]

>  <EC50>
< 100 nM

$$$$
>  <compound>
Cc1cc(Nc2ncnc3sc4c(c23)CCN(C(=O)/C=C/CN(C)C)C4)ccc1Oc1ccc2cn[nH]c2c1 [Compound 23]

>  <EC50>
< 100 nM

$$$$
>  <compound>
Cc1ccc(Oc2ccc(Nc3ncnc4sc5c(c34)CCN(C(=O)/C=C/CN3CCCC(c4nccs4)C3)C5)cc2C)cn1 (stereo not shown) [Compound 113]

>  <EC50>
100 to 1000 nM

$$$$
>  <compound>
Cc1ccc(Oc2ccc(Nc3ncnc4sc5c(c34)CCN(C(=O)/C=C/CN3CCOCC3)C5)cc2C)cn1 [Compound 17]

>  <EC50>
100 to 1000 nM

$$$$

Next item in the queue.
Lookup: Bench note: what EC50 did O=C(/C=C/CN1CC2CC(C2)C1)N1CCc2c(sc3ncnc(Nc4ccc(Oc5ccc6ncnn6c5)c(Cl)c4)c23)C1 [Compound 85] show?
Found: 100 to 1000 nM

###

molecular target: EGFR (Homo sapiens); test: EGFR signaling (pEGFR Tyr1068/total EGFR MSD) in A431 cells; assay type: cell-based; parameters: endogenous in cells; host or cells: A431, N87; settings: A431 cells; read-out: A431 pEGFR EC50
Quick reference for EC50 among some molecules

Study these solved cases before continuing.
>  <molecule>
Cc1ccc(Oc2ccc(Nc3ncnc4sc5c(c34)CCN(C(=O)/C=C/CN3CC4(CCCC4)C3)C5)cc2C)cn1

>  <experimental system>
EGFR (Homo sapiens)

>  <experimental readout>
EC50

>  <readout value>
0.1 to 1 µM

$$$$
>  <molecule>
Cc1ccc(Oc2ccc(Nc3ncnc4sc5c(c34)CCN(C(=O)/C=C/CN3CC4CCC(C3)O4)C5)cc2C)cn1

>  <experimental system>
EGFR (Homo sapiens)

>  <experimental readout>
EC50

>  <readout value>
0.1 to 1 µM

$$$$
>  <molecule>
COc1ccc(Oc2ccc(Nc3ncnc4sc5c(c34)CCN(C(=O)/C=C/CN3CC[C@@H](CO)C3)C5)cc2C)cn1

>  <experimental system>
EGFR (Homo sapiens)

>  <experimental readout>
EC50

>  <readout value>
< 0.1 µM

$$$$
>  <molecule>
O=C(/C=C/CN1CC2CC1CO2)N1CCc2c(sc3ncnc(Nc4ccc(Oc5ccc6ncnn6c5)c(Cl)c4)c23)C1 (stereo not drawn)

>  <experimental system>
EGFR (Homo sapiens)

>  <experimental readout>
EC50

>  <readout value>
< 0.1 µM

$$$$
>  <molecule>
COc1ccc(Oc2ccc(Nc3ncnc4sc5c(c34)C(C)CN(C(=O)/C=C/CN(C)C)C5)cc2C)cn1 (stereo not drawn)

>  <experimental system>
EGFR (Homo sapiens)

>  <experimental readout>
EC50

>  <readout value>
0.1 to 1 µM

$$$$

Lookup: Name the recorded EC50 for Cc1cc(Nc2ncnc3sc4c(c23)CN(C(=O)/C=C/CN(C)C)C4)ccc1Oc1ccn2ncnc2c1 .
Found: 1 to 10 µM

Lookup: What does the data say about its EC50? Entry: Cc1ccc(Oc2ccc(Nc3ncnc4sc5c(c34)C(C)CN(C(=O)C=CCN(C)C)C5)cc2C)cn1 (single isomer, unassigned) [Compound 105]
Found: 0.1 to 1 µM

Lookup: Request the reported EC50 associated with C=C(CN1CCc2c(sc3ncnc(Nc4ccc(Oc5ccc(C)nc5)c(C)c4)c23)C1)C(=O)OCC
Found: > 10 µM

Lookup: Reported EC50 for Cc1ccc(Oc2ccc(Nc3ncnc4sc5c(c34)C(C)CN(C(=O)C=CCN(C)C(C)(C)C)C5)cc2C)cn1 (single isomer, unassigned) [Compound 178] : what is it?
Found: 0.1 to 1 µM

Lookup: EC50 lookup needed for C=CC(=O)N1CCc2[nH]c3ncnc(Nc4ccc(Oc5ccc(C)nc5)c(C)c4)c3c2C1 , thanks.
Found: 0.1 to 1 µM

Lookup: What does the record list as EC50 for Cc1ccc(Oc2ccc(Nc3ncnc4sc5c(c34)C(C)N(C(=O)C=CCN(C)C)C5)cc2C)cn1 (single isomer, unassigned) [Compound 147] ?
Found: < 0.1 µM

Lookup: # lookup: EC50 of Cc1ccc(Oc2ccc(Nc3ncnc4sc5c(c34)CCN(C(=O)/C=C/CN3CC(F)(CO)C3)C5)cc2C)cn1
Found: 0.1 to 1 µM

Attribution: patent US20240391931A1
